PROTOCOL_SUMMARY: self-splicing fitness, log relative to wild type (ln ratio); higher = more splicing; Tetrahymena group I intron in knt gene, E. coli kanamycin selection, DiMSum; sequences stand for … in CUCUCU…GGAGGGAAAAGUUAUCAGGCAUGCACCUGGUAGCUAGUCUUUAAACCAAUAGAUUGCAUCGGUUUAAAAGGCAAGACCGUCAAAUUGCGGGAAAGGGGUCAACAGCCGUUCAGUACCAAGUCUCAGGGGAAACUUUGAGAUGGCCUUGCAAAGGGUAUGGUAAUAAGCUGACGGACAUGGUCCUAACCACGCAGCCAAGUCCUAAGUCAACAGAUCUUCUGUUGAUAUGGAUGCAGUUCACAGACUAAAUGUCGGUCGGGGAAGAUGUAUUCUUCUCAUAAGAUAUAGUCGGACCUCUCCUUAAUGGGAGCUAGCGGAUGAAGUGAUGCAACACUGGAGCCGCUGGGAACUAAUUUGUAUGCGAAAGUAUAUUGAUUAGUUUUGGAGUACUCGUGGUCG;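 also: selection with 25 µg/mL kanamycin versus none on LB agar overnight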
TEST_SETTINGS: 30 °C
ATTRIBUTE_MEASURED: self-splicing fitness (ln)
Returns: the value as a bare number; no unit string appended.

Item CGGCAGCAAUAUUACGUACC has what recorded self-splicing fitness (ln)?
-2.07

Item ACGGAGCAAUAUUACGGGCU has what recorded self-splicing fitness (ln)?
-2.7

Item AAGUAGCAAUAUUACGGGCG has what recorded self-splicing fitness (ln)?
-1.71

Item ACCAAGCAAUAUUACGUAGU has what recorded self-splicing fitness (ln)?
-2.49

Item AUAUAGCAAUAUUACGGCGC has what recorded self-splicing fitness (ln)?
-1.38

Item UUCGAGCAAUAUUACGUAGA has what recorded self-splicing fitness (ln)?
-3.11

Item GCUAAGCAAUAUUACGCCCC has what recorded self-splicing fitness (ln)?
-1.74

Item ACCGAGCAAUAUUACGGCAC has what recorded self-splicing fitness (ln)?
-2.07

---

Assign self-splicing fitness (ln) to each entry below.
PROTOCOL_SUMMARY: self-splicing fitness, log relative to wild type (ln ratio); higher = more splicing; Tetrahymena group I intron in knt gene, E. coli kanamycin selection, DiMSum; sequences stand for … in CUCUCU…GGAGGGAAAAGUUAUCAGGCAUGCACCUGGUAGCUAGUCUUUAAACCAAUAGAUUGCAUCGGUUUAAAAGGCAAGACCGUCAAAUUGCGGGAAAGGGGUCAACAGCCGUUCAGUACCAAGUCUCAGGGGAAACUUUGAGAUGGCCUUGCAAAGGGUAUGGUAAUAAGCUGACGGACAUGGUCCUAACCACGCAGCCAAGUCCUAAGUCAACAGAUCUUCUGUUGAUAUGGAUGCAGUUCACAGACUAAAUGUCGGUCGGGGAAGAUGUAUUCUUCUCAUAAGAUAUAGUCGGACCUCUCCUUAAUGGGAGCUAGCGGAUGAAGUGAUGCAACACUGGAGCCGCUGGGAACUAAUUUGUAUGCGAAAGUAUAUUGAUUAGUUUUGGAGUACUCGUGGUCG
TEST_SETTINGS: 37 °C
Returns: the value as a bare number; no unit string appended.

Item AACUAGCAAUAUUACGAGGU has what recorded self-splicing fitness (ln)?
-2.01

Item CAAAAGCAAUAUUACGCGCA has what recorded self-splicing fitness (ln)?
-0.548

Item GUAAAGCAAUAUUACGUACA has what recorded self-splicing fitness (ln)?
0.111

Item UUCUAGCAAUAUUACGAUGA has what recorded self-splicing fitness (ln)?
-0.0657

Item UCGCAGCAAUAUUACGAAAA has what recorded self-splicing fitness (ln)?
-2.2

Item CCUGAGCAAUAUUACGUAUA has what recorded self-splicing fitness (ln)?
-2.51

Item CCCCAGCAAUAUUACGCACA has what recorded self-splicing fitness (ln)?
-3.66

Item CUUAAGCAAUAUUACGGAUC has what recorded self-splicing fitness (ln)?
-2.11

Item CCCGAGCAAUAUUACGUAUC has what recorded self-splicing fitness (ln)?
-3.67

Item GUUUAGCAAUAUUACGUGCA has what recorded self-splicing fitness (ln)?
-0.958

Item AUCUAGCAAUAUUACGCACC has what recorded self-splicing fitness (ln)?
-0.886

Item ACUUAGCAAUAUUACGGAAU has what recorded self-splicing fitness (ln)?
-2.13

Item GAGUAGCAAUAUUACGUGGG has what recorded self-splicing fitness (ln)?
-2.94

Item AAUGAGCAAUAUUACGCCGC has what recorded self-splicing fitness (ln)?
-1.7

Item UUUGAGCAAUAUUACGUCUU has what recorded self-splicing fitness (ln)?
-3.16

Item GAAAAGCAAUAUUACGUGAG has what recorded self-splicing fitness (ln)?
-1.47

Each recorded value in this set is attributed to the supplement of paper PMC7877785.
